Documented CC50 at 4 days across a set of molecules
Test: Compound cytotoxicity, XTT-based colorimetric assay
Type: cell-based
Conditions: human, uninfected MT2 cells, day 4, XTT
Protocol: Compound cytotoxicity and the corresponding CC50 values were determined using the same protocol as described in the antiviral assay except that uninfected cells were used. Cytotoxicity was assessed on day 4 in uninfected MT2 cells by using a XTT (2,3-bis[2-Methoxy-4-nitro-5-sulfophenyl]-2H-tetrazolium-5-carboxyanilide inner salt)-based colorimetric assay (Sigma-Aldrich, St Louis, Mo.).

Look over these answered cases.
CN(C)C(=O)C1Cc2cccnc2N1S(=O)(=O)NC(=O)N[C@@H](Cc1cc(F)cc(F)c1)C(=O)N(C)c1ccc2scnc2c1 (single isomer, unassigned); > 100 µM
COc1ccc(N(C)C(=O)[C@H](Cc2ccccc2)NC(=O)NS(=O)(=O)Nc2ccc(C(C)=O)cc2)cc1; > 100 µM
COc1ccc(N(C)C(=O)[C@H](Cc2ccccc2)NC(=O)NS(=O)(=O)NCCc2ccccc2)cc1; > 100 µM
CN(C(=O)[C@H](Cc1ccccc1)NC(=O)NS(=O)(=O)Nc1ccccc1Cl)c1ccc2ncccc2c1; > 100 µM
Cc1cc(N(C)C(=O)[C@H](Cc2ccccc2)NC(=O)NS(=O)(=O)N2CCc3cccnc32)ccc1Cl; > 33.3 µM
CN(C(=O)[C@H](Cc1cc(F)cc(F)c1)NC(=O)NS(=O)(=O)N(C)CCO)c1ccc2scnc2c1; > 100 µM

Ask | Please look at this molecule and report its CC50 at 4 days: COc1ccc(N(C)C(=O)[C@H](Cc2ccccc2)NC(=O)NS(=O)(=O)n2c3ccccc3c3ccccc32)cc1
Reply | 74.2 µM
